species on record: Mus musculus; assay: Effect on the antagonism of bicuculline-induced tonic-extensor convulsions (B); type: functional; settings: Mus musculus; read-out: ED50
property measured: ED50

molecule=CN1C(=O)CN=C(c2ccccc2)c2cc(Cl)ccc21 property_measured=ED50 result="2.6 mg/kg"
molecule=CN(C)CCCn1nc2n(c1=O)-c1ccc(Cl)cc1C(c1ccccc1)=NC2 property_measured=ED50 result="40 mg/kg"
molecule=Oc1nnc2n1-c1ccc(Cl)cc1C(c1ccccc1)=NC2 property_measured=ED50 result="40 mg/kg"
molecule=Cn1nc2n(c1=O)-c1ccc(Cl)cc1C(c1ccccc1)=NC2 property_measured=ED50 result="3 mg/kg"
molecule=CN1CCN(CCCn2nc3n(c2=O)-c2ccc(Cl)cc2C(c2ccccc2Cl)=NC3)CC1 property_measured=ED50 result="> 25 mg/kg"

In: For the molecule CN(C)Cc1nnc2n1-c1ccc(Cl)cc1C(c1ccccc1)=NC2 , what ED50 is on record?
Out: 0.7 mg/kg

In: For the molecule Oc1nnc2n1-c1ccc(Cl)cc1C(c1ccccc1Cl)=NC2 , what ED50 is on record?
Out: 1 mg/kg

In: For the molecule CCN(CC)CCCn1nc2n(c1=O)-c1ccc(Cl)cc1C(c1ccccc1Cl)=NC2 , what ED50 is on record?
Out: > 50 mg/kg

In: For the molecule CNCCCn1nc2n(c1=O)-c1ccc(Cl)cc1C(c1ccccc1Cl)=NC2 , what ED50 is on record?
Out: > 50 mg/kg

In: For the molecule O=c1n(CCCN2CCN(CCO)CC2)nc2n1-c1ccc(Cl)cc1C(c1ccccc1Cl)=NC2 , what ED50 is on record?
Out: 12.5 mg/kg

====

organism: Mus musculus; assay: Effect on the antagonism of pentylenetetrazole-induced clonic convulsions (P); format: functional
Returns: string. Value is t if measured ED50 is below 4 mg/kg, and f if it is greater than or equal to it.

compound=CN1CCN(CCCn2nc3n(c2=O)-c2ccc(Cl)cc2C(c2ccccc2Cl)=NC3)CC1 label_value=t
compound=Cn1nc2n(c1=O)-c1ccc(Cl)cc1C(c1ccccc1Cl)=NC2 label_value=t
compound=CN(C)CCCn1nc2n(c1=O)-c1ccc(Cl)cc1C(c1ccccc1)=NC2 label_value=f
compound=CCN(CC)CCCCn1nc2n(c1=O)-c1ccc(Cl)cc1C(c1ccccc1Cl)=NC2 label_value=f
compound=Oc1nnc2n1-c1ccc(Cl)cc1C(c1ccccc1Cl)=NC2 label_value=t
compound=CN1CCN(CCn2nc3n(c2=O)-c2ccc(Cl)cc2C(c2ccccc2)=NC3)CC1 label_value=f

In: Answer whether the compound CN1CCN(CCn2nc3n(c2=O)-c2ccc(Cl)cc2C(c2ccccc2Cl)=NC3)CC1 has ED50 strictly less than 4 mg/kg
Out: t

In: Answer whether the compound O=c1n(CCCN2CCN(c3ccccc3)CC2)nc2n1-c1ccc(Cl)cc1C(c1ccccc1Cl)=NC2 has ED50 strictly less than 4 mg/kg
Out: f

====

species: Mus musculus; assay: Effect on the antagonism of oxotremorine-induced hypothermia (OX); format: functional
Quick reference for ED50 among some compounds

Known results for compounds:
compound=CN(C)CCCn1nc2n(c1=O)-c1ccc(Cl)cc1C(c1ccccc1Cl)=NC2 result="> 50 mg/kg"
compound=Oc1nnc2n1-c1ccc(Cl)cc1C(c1ccccc1Cl)=NC2 result="> 50 mg/kg"
compound=CN1CCN(CCn2nc3n(c2=O)-c2ccc(Cl)cc2C(c2ccccc2Cl)=NC3)CC1 result="12.5 mg/kg"
compound=Oc1nnc2n1-c1ccc(Cl)cc1C(c1ccccc1)=NC2 result="> 50 mg/kg"
compound=CN(C)CCn1nc2n(c1=O)-c1ccc(Cl)cc1C(c1ccccc1)=NC2 result="> 100 mg/kg"
compound=CN1C(=O)CN=C(c2ccccc2)c2cc(Cl)ccc21 result="> 50 mg/kg"

In: For the compound CN1CCN(CCCn2nc3n(c2=O)-c2ccc(Cl)cc2C(c2ccccc2Cl)=NC3)CC1 , what ED50 is on record?
Out: 25 mg/kg

In: For the compound CCN(CC)CCCCn1nc2n(c1=O)-c1ccc(Cl)cc1C(c1ccccc1Cl)=NC2 , what ED50 is on record?
Out: 10.5 mg/kg

In: For the compound CC(CN(C)C)Cn1nc2n(c1=O)-c1ccc(Cl)cc1C(c1ccccc1Cl)=NC2 (stereo not given) , what ED50 is on record?
Out: > 50 mg/kg

In: For the compound CN(C)Cc1nnc2n1-c1ccc(Cl)cc1C(c1ccccc1)=NC2 , what ED50 is on record?
Out: 5.3 mg/kg

====

species on record: Mus musculus; experiment: Effect on the antagonism of nicotine-induced death (D); assay type: functional; conditions: Mus musculus; read-out: ED50
property measured: ED50 (mg/kg)
Response body: numeric value in mg/kg, unit text excluded.

Known results for compounds:
compound_structure_string=CCN(CC)CCCn1nc2n(c1=O)-c1ccc(Cl)cc1C(c1ccccc1Cl)=NC2 property_measured=ED50 result=1.3
compound_structure_string=CN(C)CCCn1nc2n(c1=O)-c1ccc(Cl)cc1C(c1ccccc1)=NC2 property_measured=ED50 result=3.6
compound_structure_string=CCN(CC)CCCCn1nc2n(c1=O)-c1ccc(Cl)cc1C(c1ccccc1Cl)=NC2 property_measured=ED50 result=0.8
compound_structure_string=CN(C)CCCN1c2ccccc2CCc2ccccc21 property_measured=ED50 result=7
compound_structure_string=CCN(CC)CCn1nc2n(c1=O)-c1ccc(Cl)cc1C(c1ccccc1Cl)=NC2 property_measured=ED50 result=0.1
compound_structure_string=CN1C(=O)CN=C(c2ccccc2)c2cc(Cl)ccc21 property_measured=ED50 result=0.28
compound_structure_string=CN(C)Cc1nnc2n1-c1ccc(Cl)cc1C(c1ccccc1)=NC2 property_measured=ED50 result=0.13
compound_structure_string=CNCCCn1nc2n(c1=O)-c1ccc(Cl)cc1C(c1ccccc1Cl)=NC2 property_measured=ED50 result=1.4

In: For the compound Cn1nc2n(c1=O)-c1ccc(Cl)cc1C(c1ccccc1Cl)=NC2 , what ED50 is on record?
Out: 0.002

In: For the compound CN(C)CCn1nc2n(c1=O)-c1ccc(Cl)cc1C(c1ccccc1)=NC2 , what ED50 is on record?
Out: 1.4

====

Quick reference for ED50 among some molecules
species on record: Mus musculus; test: Effect on the potentiation of yohimbine-induced toxicity (Y) in aggregated mice; assay type: functional

compound_structure_string=CN1CCN(CCCn2nc3n(c2=O)-c2ccc(Cl)cc2C(c2ccccc2Cl)=NC3)CC1 property_measured=ED50 result="25 mg/kg"
compound_structure_string=CCN(CC)CCCn1nc2n(c1=O)-c1ccc(Cl)cc1C(c1ccccc1Cl)=NC2 property_measured=ED50 result="> 50 mg/kg"
compound_structure_string=CN(C)CCn1nc2n(c1=O)-c1ccc(Cl)cc1C(c1ccccc1)=NC2 property_measured=ED50 result="> 100 mg/kg"
compound_structure_string=O=c1n(CCCN2CCN(c3ccccc3)CC2)nc2n1-c1ccc(Cl)cc1C(c1ccccc1Cl)=NC2 property_measured=ED50 result="> 50 mg/kg"
compound_structure_string=CCN(CC)CCCCn1nc2n(c1=O)-c1ccc(Cl)cc1C(c1ccccc1Cl)=NC2 property_measured=ED50 result="> 12.5 mg/kg"

In: For the molecule CN(C)CCCN1c2ccccc2CCc2ccccc21 , what ED50 is on record?
Out: 4 mg/kg

In: For the molecule CN1C(=O)CN=C(c2ccccc2)c2cc(Cl)ccc21 , what ED50 is on record?
Out: > 50 mg/kg

In: For the molecule CNCCCn1nc2n(c1=O)-c1ccc(Cl)cc1C(c1ccccc1Cl)=NC2 , what ED50 is on record?
Out: > 50 mg/kg

In: For the molecule CCN(CC)CCn1nc2n(c1=O)-c1ccc(Cl)cc1C(c1ccccc1Cl)=NC2 , what ED50 is on record?
Out: > 100 mg/kg

====

species: Mus musculus; assay: Effect on the antagonism of oxotremorine-induced hypothermia (OX); format: functional
property measured: ED50

Known results for compounds:
compound_structure_string=CCN(CC)CCCn1nc2n(c1=O)-c1ccc(Cl)cc1C(c1ccccc1Cl)=NC2 result="> 25 mg/kg"
compound_structure_string=O=c1n(CCCN2CCN(CCO)CC2)nc2n1-c1ccc(Cl)cc1C(c1ccccc1Cl)=NC2 result="> 25 mg/kg"

In: For the compound CN(C)CCCn1nc2n(c1=O)-c1ccc(Cl)cc1C(c1ccccc1)=NC2 , what ED50 is on record?
Out: > 50 mg/kg

In: For the compound CN(C)CCCN1c2ccccc2CCc2ccccc21 , what ED50 is on record?
Out: 1 mg/kg

In: For the compound CCN(CC)CCn1nc2n(c1=O)-c1ccc(Cl)cc1C(c1ccccc1)=NC2 , what ED50 is on record?
Out: > 50 mg/kg

In: For the compound Cn1nc2n(c1=O)-c1ccc(Cl)cc1C(c1ccccc1)=NC2 , what ED50 is on record?
Out: > 50 mg/kg
